Reported AC50 values for the following compounds.
# experimental_target: Peroxisome proliferator-activated receptor gamma (Homo sapiens) (UniProt P37231)
# Sequence (P37231 whole entry, looked up): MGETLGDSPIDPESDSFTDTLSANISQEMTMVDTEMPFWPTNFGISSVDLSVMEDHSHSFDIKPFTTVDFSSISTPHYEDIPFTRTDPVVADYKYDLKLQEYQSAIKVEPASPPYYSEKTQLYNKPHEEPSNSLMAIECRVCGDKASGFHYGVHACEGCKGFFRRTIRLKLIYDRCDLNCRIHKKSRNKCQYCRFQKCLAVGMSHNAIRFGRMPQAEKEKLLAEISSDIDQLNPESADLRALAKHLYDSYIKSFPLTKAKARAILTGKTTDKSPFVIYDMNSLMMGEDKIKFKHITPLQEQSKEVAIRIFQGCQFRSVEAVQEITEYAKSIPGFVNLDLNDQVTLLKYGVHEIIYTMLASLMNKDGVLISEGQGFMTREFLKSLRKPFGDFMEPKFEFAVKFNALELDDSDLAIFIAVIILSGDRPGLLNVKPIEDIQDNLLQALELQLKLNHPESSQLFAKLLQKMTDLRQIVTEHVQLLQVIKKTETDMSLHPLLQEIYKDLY
# test_details: ATG_PPARg_TRANS: Attagene TRANS-FACTORIAL HepG2 Assay for human Peroxisome Proliferator-activated Receptor-gamma (PPARg) (AID 2283007)
Inconclusive results are not listed. Activity calls are given as the source filed them. The calls were made as follows: active = hit-call score of the fitted dose curve at least 0.9, where 1 is the maximum; inconclusive = response in the unintended direction; inactive = score below 0.9.

C1=Cc2ccccc2C1
67.4 µM (active)
CC(C)(c1cc(Br)c(OCCO)c(Br)c1)c1cc(Br)c(OCCO)c(Br)c1
2.78 µM (active)

Below: the item to evaluate.
Value of measured AC50 for the entry `COCc1c(C(C)C)nc(C(C)C)c(/C=C/[C@@H](O)C[C@@H](O)CC(=O)O)c1-c1ccc(F)cc1` : 12.8 µM (active)

====

# test_details: ATG_CMV_CIS: Attagene CIS-FACTORIAL HepG2 Assay for human CMV (Internal Marker) (AID 2282928);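 also: endpoint acts as a background internal control marker rather than a target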
# protocol_conditions: HepG2 CMV promoter reporter, transcription factor profiling; actives raise or lower the signal
Calls of active or inactive are those of the source. The calls were made as follows: active = hit-call score of the fitted dose curve at least 0.9, where 1 is the maximum; inactive = score below 0.9.
Hello, when you answer, please use one of the following outcomes: active, inactive

Some entries whose results are on file:
Oc1ccc(Cl)cc1Cc1cc(Cl)ccc1O
inactive
c1ccc(CCCc2ccncc2)cc1
active
Cc1ccccc1C
inactive
CCC(CC)C(=O)O
inactive

-- ask Assay outcome for `CNC(=S)N(C)C` : what was it?
-- reply inactive

-- ask Assay outcome for `CCCCCCCC/C=C\CCCCCCCC(=O)OCCO` : what was it?
-- reply inactive

-- ask Assay outcome for C=CC(C)(CCC=C(C)C)OC(=O)CC(C)C (stereo not given) : what was it?
-- reply active

====

# experimental_target: Paired box protein Pax-6 (Homo sapiens) (UniProt P26367)
# Sequence (P26367 whole entry, looked up): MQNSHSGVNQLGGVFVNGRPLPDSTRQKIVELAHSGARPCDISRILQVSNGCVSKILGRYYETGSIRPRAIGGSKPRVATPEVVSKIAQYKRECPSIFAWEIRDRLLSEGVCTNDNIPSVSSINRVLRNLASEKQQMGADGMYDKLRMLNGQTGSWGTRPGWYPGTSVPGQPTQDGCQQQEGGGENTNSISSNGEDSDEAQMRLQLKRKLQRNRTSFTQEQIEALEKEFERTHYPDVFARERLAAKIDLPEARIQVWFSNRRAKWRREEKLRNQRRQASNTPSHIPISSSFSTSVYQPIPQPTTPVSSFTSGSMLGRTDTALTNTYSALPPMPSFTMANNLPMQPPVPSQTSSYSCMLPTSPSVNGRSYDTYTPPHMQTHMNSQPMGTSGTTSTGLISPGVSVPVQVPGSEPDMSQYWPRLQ
# test_details: ATG_Pax6_CIS: Attagene CIS-FACTORIAL HepG2 Assay for human Paired Box 6 (PAX6) (AID 2282956)
# protocol_conditions: HepG2 CIS-FACTORIAL PAX6 reporter transcription, RNA readout; actives raise or lower the signal
The source made the active and inactive calls. Rule for the calls: active = hit-call score of the fitted dose curve at least 0.9, where 1 is the maximum; inactive = score below 0.9.
Hello, when you answer, please use one of the following outcomes: yes (1) = active, no (0) = inactive

Nc1ccc(Oc2ccc(N)c(N)c2)cc1
no (0)
Cc1oncc1C(=O)Nc1ccc(C(F)(F)F)cc1
no (0)
CCC(Cc1ccccc1)(C(=O)c1ccc(N2CCOCC2)cc1)N(C)C (stereo unspecified)
yes (1)
O=c1n(CCO)c(=O)n(CCO)c(=O)n1CCO
no (0)
C=CCOc1c(Br)cc(Br)cc1Br
no (0)

-- ask Assay outcome for `c1c[nH]cn1` : what was it?
-- reply no (0)

====

# test_details: ATG_M_32_CIS: Attagene CIS-FACTORIAL HepG2 Assay for M32 Transcription Factor (Internal Marker) (AID 2282949);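 also: background control marker of the multiplexed CIS panel rather than a real target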
# protocol_conditions: HepG2 Attagene cis-factorial M32 reporter, mRNA; actives raise or lower the signal
Active and inactive are the calls of the source. Rule for the calls: active = hit-call score of the fitted dose curve at least 0.9, where 1 is the maximum; inactive = score below 0.9.
property_measured: outcome

These recorded examples may help you get a feel for the data.
CC(C)CCCC(C)CC=O (stereo not drawn)
inactive
CC1=NN(c2cc(S(=O)(=O)O)ccc2Cl)C(=O)C1N=Nc1ccccc1 (stereo not drawn)
inactive
S=C(NC1CCCCC1)NC1CCCCC1
inactive
CCCCCCOc1cc(C)c(O)c(C)c1C
inactive
C=CCOCC(O)CCl (stereo not drawn)
inactive

Value of measured outcome for the entry O=C1C(N(CO)C(=O)NCO)N(CO)C(=O)N1CO (stereo not drawn) : inactive

Value of measured outcome for the entry `Cc1ccccc1C` : inactive

Value of measured outcome for the entry `C1=Cc2ccccc2C1` : inactive

Value of measured outcome for the entry `COC(=O)/C=C/C(C)=C\C=C\C(C)=C\C=C\C=C(C)\C=C\C=C(C)\C=C\C(=O)O` : inactive

Value of measured outcome for the entry `C[Si](C)(CCCN)O[Si](C)(C)CCCN` : inactive

Value of measured outcome for the entry `OC1CCCC1` : inactive

Value of measured outcome for the entry `CCOCC(=O)O` : inactive

Value of measured outcome for the entry `CC(C)C1=CC2=CC[C@@H]3[C@](C)(CCC[C@@]3(C)C(=O)O)[C@H]2CC1` : inactive

Value of measured outcome for the entry `SCCc1cnccn1` : inactive

Value of measured outcome for the entry `C=C[Si](C)(C)O[Si](C)(C)C=C` : inactive

Value of measured outcome for the entry `O=c1n(CCO)c(=O)n(CCO)c(=O)n1CCO` : inactive

Value of measured outcome for the entry `OCCc1ccncc1` : inactive

Value of measured outcome for the entry `O=C1CCCCCCCCCCCCCCCO1` : inactive

Value of measured outcome for the entry `Cc1ccc(OC(=O)CC(C)C)cc1` : inactive

Value of measured outcome for the entry `O=C(Nc1ccccc1SSc1ccccc1NC(=O)c1ccccc1)c1ccccc1` : inactive

Value of measured outcome for the entry `CC(C)=CCC[C@H](C)CCO` : inactive

Value of measured outcome for the entry `Cc1cc(C)c(C)c(C)c1` : inactive

====

# Read-out: Interleukin-8 (IL8), CXCL8 (gene 3576)
# test_details: BSK_CASM3C_IL8: BioMAP Diversity Plus: CASM3C Assay for Interleukin-8 (IL8) Biomarker Activity (AID 2283042);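 also: IL-8 protein level quantified by ELISA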
# protocol_conditions: primary human coronary artery smooth muscle cells; actives raise or lower the signal
Active and inactive are the calls of the source. How the source made its calls: active means hit-call score of the fitted dose curve at least 0.9, where 1 is the maximum; inactive means score below 0.9.
Hello, when you answer, please use one of the following outcomes: active, inactive

Some entries whose results are on file:
C=CCOCC(O)CCl (centres undefined)
inactive
CN1C(=O)N(C)C(O)C1O (centres undefined)
inactive
O=C(Nc1ccccc1SSc1ccccc1NC(=O)c1ccccc1)c1ccccc1
inactive
c1ccc(-c2ccccn2)nc1
inactive

-- ask Assay outcome for `c1ccc2c(c1)ccc1ncccc12` : what was it?
-- reply inactive

-- ask Assay outcome for `C=C[Si](OC(C)=O)(OC(C)=O)OC(C)=O` : what was it?
-- reply inactive

-- ask Assay outcome for `COCc1c(C(C)C)nc(C(C)C)c(/C=C/[C@@H](O)C[C@@H](O)CC(=O)O)c1-c1ccc(F)cc1` : what was it?
-- reply active

-- ask Assay outcome for `COc1ccc2nc(N)sc2c1` : what was it?
-- reply inactive

-- ask Assay outcome for `CC(C)C(=O)C(C)C` : what was it?
-- reply inactive

====

# test_details: ATG_ISRE_CIS: Attagene CIS-FACTORIAL HepG2 Assay for human Interferon Regulatory Factor 1 (IRF1) binding to an Interferon-Stimulated Response Element (ISRE) (AID 2282948)
# protocol_conditions: HepG2 ISRE cis-reporter (Attagene), mRNA transcription readout; actives raise or lower the signal
Calls of active or inactive are those of the source. How the source made its calls: active means hit-call score of the fitted dose curve at least 0.9, where 1 is the maximum; inactive means score below 0.9.
Hello, when you answer, please use one of the following outcomes: active, inactive

Cn1c(=O)[nH]c2ncn(C)c2c1=O
inactive
CCOC(=O)[C@H](C)O
inactive
c1cc(C(c2ccc(OCC3CO3)cc2)C(c2ccc(OCC3CO3)cc2)c2ccc(OCC3CO3)cc2)ccc1OCC1CO1 (configuration not stated)
active

Now take the following molecule into account.
-- ask Assay outcome for `Nc1nc2ccccc2[nH]1` : what was it?
-- reply inactive

====

# experimental_target: Cellular tumor antigen p53 (Homo sapiens)
# test_details: TOX21_p53_BLA_p2_ratio: Tox21 HCT-116 p53 Agonism Beta-lactamase Assay, Ratio, Phase 2 (AID 2283592)
Results filed as inconclusive are left out. Calls of active or inactive are those of the source. The calls were made as follows: active = hit-call score of the fitted dose curve at least 0.9, where 1 is the maximum; inconclusive = response in the unintended direction; inactive = score below 0.9.
Hello, when you answer, please use one of the following outcomes: active, inactive

Some entries whose results are on file:
COCc1c(C(C)C)nc(C(C)C)c(/C=C/[C@@H](O)C[C@@H](O)CC(=O)O)c1-c1ccc(F)cc1
inactive
CCCCCCCCCCCSCC(=O)O
active
O=C1CCCC(=O)O1
inactive
CC(C)(c1cc(Br)c(OCCO)c(Br)c1)c1cc(Br)c(OCCO)c(Br)c1
active
CC1=NN(c2cc(S(=O)(=O)O)ccc2Cl)C(=O)C1N=Nc1ccccc1 (configuration not stated)
inactive

-- ask Assay outcome for `Cc1ccccc1C` : what was it?
-- reply inactive

-- ask Assay outcome for `O=C(c1ccccc1)c1ccc(O)c(O)c1O` : what was it?
-- reply inactive

====

# Read-out: TIMP metallopeptidase inhibitor 1 (TIMP1), TIMP1 (gene 7076)
# test_details: BSK_hDFCGF_TIMP1: BioMAP Diversity Plus: hDFCGF Assay for TIMP metallopeptidase inhibitor 1 (TIMP1) Biomarker Activity (AID 2283062)
# protocol_conditions: primary human foreskin fibroblasts; actives raise or lower the signal
# Description: BSK_hDFCGF is a cell-based, multiplexed-readout assay that uses foreskin fibroblast, a human skin primary cell, with measurements taken at 24 hours after chemical dosing in a 96-well plate.BSK_hDFCGF_TIMP1 is an assay component measured in the BSK_hDFCGF assay. It measures TIMP-1 antibody related to regulation of gene expression using ELISA technology.Data from the assay component BSK_hDFCGF_TIMP1 was analyzed into 1 assay endpoint. […]
The source made the active and inactive calls. Rule for the calls: active = hit-call score of the fitted dose curve at least 0.9, where 1 is the maximum; inactive = score below 0.9.
Hello, when you answer, please use one of the following outcomes: active, inactive

c1ccc2c(c1)ccc1ncccc12
inactive

-- ask Assay outcome for `CO[Si](OC)(OC)c1ccccc1` : what was it?
-- reply inactive

-- ask Assay outcome for `CCCCC/C=C\C/C=C\CCCCCCCC(=O)OC` : what was it?
-- reply active

-- ask Assay outcome for `CCCCCCCCc1ccc(Nc2ccc(CCCCCCCC)cc2)cc1` : what was it?
-- reply inactive

-- ask Assay outcome for `O=C(Nc1ccccc1SSc1ccccc1NC(=O)c1ccccc1)c1ccccc1` : what was it?
-- reply inactive

-- ask Assay outcome for `CCO[Si](C)(OCC)OCC` : what was it?
-- reply inactive

-- ask Assay outcome for `O=C(c1ccc(O)cc1)c1ccc(O)cc1O` : what was it?
-- reply inactive

-- ask Assay outcome for C=CC(=O)OCC(Br)CBr (stereo not drawn) : what was it?
-- reply active
